B1: Hairpin Ribozyme (parent)
chain: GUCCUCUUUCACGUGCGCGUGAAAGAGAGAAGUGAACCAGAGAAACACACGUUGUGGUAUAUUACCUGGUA

- Variants of: B1
- run.description: self-cleavage, relative activity (ratio to wild type); higher = more cleavage; co-transcriptional
measured.parameter: self-cleavage
Number only, please.

Observe how each entry below is paired with its result.
mutation.name	self-cleavage
U62C C66G	0.213
U55G G56U	0.211
G1A G69C	0.137
C10A C38U	0.425

Looking up A26G A31G , I found its self-cleavage recorded as 0.884

Looking up A45C C46U , I found its self-cleavage recorded as 0.067

Looking up G1A A31U , I found its self-cleavage recorded as 0.284

Looking up U2A G57U , I found its self-cleavage recorded as 0.109

Looking up A47G A64G , I found its self-cleavage recorded as 0.0949

Looking up U7C C50G , I found its self-cleavage recorded as 0.229

Looking up C48U G54U , I found its self-cleavage recorded as 0.203

Looking up A11C A39U , I found its self-cleavage recorded as 0.37

Looking up A45C U52G , I found its self-cleavage recorded as 0.0239

Looking up G21C G40C , I found its self-cleavage recorded as 0.0941

Looking up G40C A64C , I found its self-cleavage recorded as 0.126

Looking up A44C G69U , I found its self-cleavage recorded as 0.167

Looking up A39C A47U , I found its self-cleavage recorded as 0.151

Looking up G19A U33C , I found its self-cleavage recorded as 0.0941

Looking up C10G U14A , I found its self-cleavage recorded as 0.635

Looking up C18G U60C , I found its self-cleavage recorded as 1.02

Looking up C18U G56C , I found its self-cleavage recorded as 0.179

Looking up G15A C38A , I found its self-cleavage recorded as 0.148
